# Test system: BT-549 breast
# Assay Name: NCI-60 one-dose screen, 48 h (100 = growth as untreated, 0 = no growth, -100 = all killed)
# Condition Label: 10 µM unless noted
About 83,000 compounds went through this panel and 20% of them were active in at least one assay; those are over-represented in the sample as a whole.
So basically, the class depends on measured growth, and the ranges are 0 = under 40%, 1 = from 40% up to 90%, 2 = 90% and over

Worked examples, 5 molecules total:
CCN(CC)CCOc1ccc(C(=C(C)c2ccc(OC)cc2)c2ccc(OCCN(CC)CC)cc2)cc1 ... 1
CC(C)(C)Nc1nc2c(OCCc3ccccc3)cccn2c1-c1ccc([N+](=O)[O-])cc1 ... 2
O=S(=O)(NCCCNc1nccc(-c2[nH]c(-c3ccccc3)nc2-c2ccc(F)c(O)c2)n1)c1cccc2ccccc12 ... 1
COc1ccccc1Cn1cc(C#N)c(N)c1C(=O)c1ccc(Br)cc1 ... 2
Clc1ccc2[nH]cc(-c3nn4cc(-c5ccncc5)nc4s3)c2c1 ... 0

// return the class label for Cc1cc(=O)[nH]c(O)c1C#N 2

// return the class label for O=C(CSc1nnc(-c2ccc(Cl)cc2)n1-c1ccccc1)Nc1ccc(Cl)cc1 1

// return the class label for COc1ccc(/C=N/NC(=O)CSc2nc(-c3cnccn3)cc(-c3cccs3)c2C#N)cc1OC 0

// return the class label for Cc1ccc2c(n1)C(=O)C(Cl)=C(Nc1ccccc1C(=O)OC(C)(C)C)C2=O 0

// return the class label for O=C(N/N=C\c1ccc([N+](=O)[O-])cc1)c1ccc2nc(-c3ccc(Br)cc3)[nH]c2c1 0

// return the class label for CC(=O)c1cc(C(=O)N2c3ccccc3Sc3ccccc32)n2c1ccc1ccccc12 1

// return the class label for FC(F)(F)c1cc(Br)cc(-c2cc(-c3ccc4c(c3)OCCO4)[nH]n2)c1 0

// return the class label for Cc1ccc(NC(=O)/C=C/c2ccc(OCCCOc3ccc4c(C)cc(=O)oc4c3)cc2)cc1 2

// return the class label for COc1cccc2c1C=CC1(O2)Oc2cccc(OC)c2C=C1C (stereo not given) 0

// return the class label for CCCCOc1ccc(S(=O)(=O)N2CCN(c3nc(C)cc(N4CCOCC4)n3)CC2)cc1 0

// return the class label for O=C(/C=C/c1ccccc1)c1cccc(O)c1 2

// return the class label for C/C(=N\NC(=O)Nc1ccccc1)c1nnn(-c2ccc([N+](=O)[O-])cc2)c1C 2

// return the class label for COCCOc1ccc2ncc(C#Cc3cncc(C(=O)Nc4ccc(CN5CCN(C)CC5)c(C(F)(F)F)c4)c3)n2n1 0

Data credit: PubChem BioAssay (NCI)
